Tested on: Mycobacterium tuberculosis
Assay: Inhibition of Bio-A underexpressed in Mycobacterium tuberculosis in presence of anhydrotetracycline after 9 days
Would you kindly list MIC50 for each of these compounds?

// MIC50 (Mycobacterium tuberculosis) for "Cc1noc(-c2ccc(N3CCN(C(=O)c4cccc(Cl)c4)CC3)cc2)n1" = > 50 µM

// MIC50 (Mycobacterium tuberculosis) for "CC(=O)c1ccc(N2CCC(C(=O)c3ccc4c(c3)OCO4)CC2)cc1" = > 50 µM

// MIC50 (Mycobacterium tuberculosis) for "CC(=O)c1ccc(N2CCN(C(=O)c3cc(Cl)cc(Cl)c3)CC2)cc1" = > 50 µM

---

Test system: Mycobacterium tuberculosis H37Rv
Experiment: Inhibition of Bio-A in wild type Mycobacterium tuberculosis H37Rv after 9 days
measurementKind: MIC50

// MIC50 (Mycobacterium tuberculosis H37Rv) for "CC(=O)c1ccc(-c2cn(Cc3cccc(Cl)c3)nn2)s1" = > 50 µM

// MIC50 (Mycobacterium tuberculosis H37Rv) for "CC(=O)c1ccc(N2CCN(C(=O)c3cnn(C)c3)CC2)cc1" = > 50 µM

// MIC50 (Mycobacterium tuberculosis H37Rv) for "CC(=O)c1ccc(N2CCC(C(=O)c3ccc4c(c3)OCO4)CC2)cc1" = > 50 µM

// MIC50 (Mycobacterium tuberculosis H37Rv) for "CC(=O)c1ccc(N2CCN(C(=O)c3cc(Cl)cc(Cl)c3)CC2)cc1" = > 50 µM

// MIC50 (Mycobacterium tuberculosis H37Rv) for "CC(=O)c1ccc(N2CCN(C(=O)c3ccc4c(c3)OCCO4)CC2)cc1" = > 50 µM

// MIC50 (Mycobacterium tuberculosis H37Rv) for "CC(=O)c1ccc(N2CCN(C(=O)c3cccnc3)CC2)cc1" = > 50 µM

// MIC50 (Mycobacterium tuberculosis H37Rv) for "CC(=O)c1ccc(N2CCN(C(=O)c3ccc4c(c3)OCCCO4)CC2)cc1" = > 50 µM

// MIC50 (Mycobacterium tuberculosis H37Rv) for "CC(=O)c1cccc(N2CCN(C(=O)c3cccc(Cl)c3)CC2)c1" = > 50 µM

// MIC50 (Mycobacterium tuberculosis H37Rv) for "CCC(=O)N1CCN(c2ccc(C(C)=O)cc2)CC1" = > 50 µM

// MIC50 (Mycobacterium tuberculosis H37Rv) for "O=C(c1cccc(Cl)c1)N1CCN(c2ccc([N+](=O)[O-])cc2)CC1" = 15.4 µM

// MIC50 (Mycobacterium tuberculosis H37Rv) for "CC(=O)c1ccc(N2CCN(C(=O)c3ccc4c(c3)OCO4)CC2)cc1" = 5.6 µM

// MIC50 (Mycobacterium tuberculosis H37Rv) for "COC(=O)c1ccc(N2CCN(C(=O)c3cccc(Cl)c3)CC2)cc1" = > 50 µM

// MIC50 (Mycobacterium tuberculosis H37Rv) for "CC(=O)c1ccc(N2CCN(C(=O)c3cccc(Cl)c3)CC2)cc1" = 5.1 µM

// MIC50 (Mycobacterium tuberculosis H37Rv) for "O=C1CCc2cc(N3CCN(C(=O)c4cccc(Cl)c4)CC3)ccc21" = 4.4 µM

Where these numbers come from: ChEMBL document CHEMBL4011626
